Give pKd for every item shown.
Target: immobilized recombinant MIF protein (Homo sapiens, UniProt P14174)
Sequence (P14174 2-115 limits assumed): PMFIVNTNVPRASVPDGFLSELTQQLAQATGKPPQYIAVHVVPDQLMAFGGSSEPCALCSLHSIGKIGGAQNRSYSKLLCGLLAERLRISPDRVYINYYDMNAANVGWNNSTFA
Assay: Interaction of compounds with MIF protein by Surface Plasmon Resonance (Biacore S51)
Assay type: binding
Conditions: SPR, immobilized MIF, steady state evaluation, 5% DMSO; read-out: Steady State Method (equilibrium dissociation constant KD)
Quick note: pKd means taking -log10 of the concentration in moles per liter.

Request: Consider the compound O=C(O)CCSCC(=O)c1cc2c(cc1Cl)NC(=O)C2 and give its recorded pKd.
Response: 5.00

Request: Look up pKd of O=C(O)CCSCC(=O)c1ccc2[nH]c(=O)[nH]c2c1 and report it.
Response: 5.29

Request: Check the records and state pKd for CCCCSCC(=O)c1ccc2[nH]c(=O)sc2c1
Response: 4.57
